measurement target: human TLR8 (Homo sapiens)
Construct: host or cells: HEK-Blue cells
Sequence (Q9NR97 27-1041): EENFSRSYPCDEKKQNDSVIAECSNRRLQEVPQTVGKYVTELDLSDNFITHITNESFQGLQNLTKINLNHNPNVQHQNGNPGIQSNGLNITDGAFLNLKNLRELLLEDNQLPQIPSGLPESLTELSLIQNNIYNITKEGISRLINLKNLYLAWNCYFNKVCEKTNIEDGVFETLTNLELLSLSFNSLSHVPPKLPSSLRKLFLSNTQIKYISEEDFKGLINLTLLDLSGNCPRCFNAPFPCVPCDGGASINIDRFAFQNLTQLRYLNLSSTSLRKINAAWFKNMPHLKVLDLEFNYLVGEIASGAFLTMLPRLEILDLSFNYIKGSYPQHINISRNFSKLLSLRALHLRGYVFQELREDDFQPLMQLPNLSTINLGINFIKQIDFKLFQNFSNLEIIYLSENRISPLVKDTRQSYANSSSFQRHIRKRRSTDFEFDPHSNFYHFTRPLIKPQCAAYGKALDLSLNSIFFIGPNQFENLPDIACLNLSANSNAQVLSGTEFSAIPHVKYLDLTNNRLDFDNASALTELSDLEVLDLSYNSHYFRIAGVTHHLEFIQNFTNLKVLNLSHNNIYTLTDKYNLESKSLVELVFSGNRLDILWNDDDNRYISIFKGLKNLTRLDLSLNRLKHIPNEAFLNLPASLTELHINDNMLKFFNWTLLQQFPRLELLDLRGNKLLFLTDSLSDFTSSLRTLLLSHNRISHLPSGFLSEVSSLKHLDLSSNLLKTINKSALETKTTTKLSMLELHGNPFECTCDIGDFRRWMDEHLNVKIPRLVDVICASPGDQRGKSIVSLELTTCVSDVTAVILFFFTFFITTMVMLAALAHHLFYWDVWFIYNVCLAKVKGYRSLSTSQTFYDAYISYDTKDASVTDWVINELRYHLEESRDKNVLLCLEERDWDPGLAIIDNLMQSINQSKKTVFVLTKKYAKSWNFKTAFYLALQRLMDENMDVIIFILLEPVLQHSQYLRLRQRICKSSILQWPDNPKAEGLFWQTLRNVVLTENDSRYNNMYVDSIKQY
test summary: TLR8 inhibition reporter assay (HEK-Blue cells, SEAP reporter, R848 stimulation)
Format: cell-based
condition: HEK-Blue cells overexpressing human TLR8, SEAP reporter, R848 15.9 μM
Excerpt: TLR7/8/9 Inhibition Reporter Assays HEK-Blue™-cells (Invivogen) overexpressing human TLR7, TLR8 or TLR9 receptors were used for screening inhibitors of these receptors using an inducible SEAP (secreted embryonic alkaline phosphatase) reporter gene under the control of the IFN-β minimal promoter fused to five NF-κB and AP-1-binding sites. […]
Lab note: anything with IC50 below 5 nM is marked 1.0; values at 5 nM or higher are marked 0.0.

Study these solved cases before continuing.
Cc1c(-c2[nH]c3ccc(C4CC(NCC#N)C4)cc3c2C(C)C)cn2ncnc2c1C (stereo not drawn) [Example 567] | 1.0
CCCN1CC(c2ccc3[nH]c(-c4cn5cnnc5c(C)c4C)c(C(C)C)c3c2)C1 [Example 546] | 0.0
COc1cc(-c2[nH]c3ccc(C4CN(C)C(C)(C)CO4)cc3c2C(C)C)cn2ncnc12 (stereo not drawn) [Example 377] | 0.0

Please let me know if Cc1cc(-c2[nH]c3ccc([C@@H]4C[C@H]4C(=O)N(C)C4CC5CCN4CC5)cc3c2C(C)C)ccn1 (stereo partly drawn) [Example 459] shows IC50 below 5 nM.
0.0

Item COc1cc(-c2[nH]c3ccc(C4CCCNC4)cc3c2C(C)C)cn2ncnc12 (stereo not drawn) [Example 181] : IC50 beneath 5 nM, strictly?
1.0

IC50 under 5 nM? Item: COc1cc(-c2[nH]c3ccc(C4CCC(N5CC6(COC6)C5)CC4)cc3c2C(C)C)cn2ncnc12 (stereo not drawn) [Example 96]
1.0

# check: IC50 < 5 nM for COc1cc(-c2[nH]c3ccc(CC4CNC4)cc3c2C(C)C)cn2ncnc12 [Example 430]
0.0

Is 5 nM strictly greater than the molecule's reported IC50? molecule: CNC1CCC(c2ccc3[nH]c(-c4cc(C)c5ncnn5c4)c(C(C)C)c3c2)CC1 (single isomer, unassigned) [Example 58]
0.0

Strictly below 5 nM: is that where IC50 of COc1cc(-c2[nH]c3ccc(C4CCCN(CC(C)(C)O)C4)cc3c2C(C)C)cn2ncnc12 (stereo not drawn) [Example 248] sits?
1.0

Does Cc1c(-c2[nH]c3ccc(C4CCCN(CC(=O)N(C)C)C4)cc3c2C(C)C)cn2ncnc2c1C (stereo not drawn) [Example 230] have IC50 strictly under 5 nM?
0.0

Would you kindly verify if IC50 of Cc1cc(-c2[nH]c3ccc(C4CCCN(C(=O)C5(C)CC5)C4)cc3c2C(C)C)cc(C)n1 (stereo not drawn) [Example 199] is strictly less than 5 nM?
0.0
